assay: drug combination growth inhibition, ovarian cancer – cell-based, oncology-focused library, rucaparib conditional, profiling panel (AID 1508598); details: patient-derived ovarian cancer cells, CellTiter-Glo viability, 144 h; at 0.000305 µM; OCI-P5x cells; without rucaparib
Activity calls are given as the source filed them.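 How the source made its calls: active means normalized viability below 100% at a tested concentration; inactive means the rest.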
Could you please pick one outcome from this set? Yes (active), No (inactive)

Answered examples (4):
>>> qualitativelabel("CC(C)Oc1ccc(C(=O)N[C@H](CNC(=O)CN(C)C)Cc2ccc(-c3cn4cccc([C@H](C)O)c4n3)cc2)cc1Cl")
"No"
>>> qualitativelabel("CC(C)(C)c1cnc(CSc2cnc(NC(=O)C3CCNCC3)s2)o1")
"No"
>>> qualitativelabel("CN1CCCN(C(=O)c2cccc(-c3ccc(/C=C4/C(=O)Nc5ccc(Cl)cc54)o3)c2)CC1")
"No"
>>> qualitativelabel("Cc1cccc(-c2[nH]c(C(C)(C)C)nc2-c2ccc3nccnc3c2)n1")
"Yes"

Challenge: Per the assay record, what outcome was assigned to Cc1cnc(Nc2ccc(OCCN3CCCC3)cc2)nc1Nc1cccc(S(=O)(=O)NC(C)(C)C)c1 ?
Response given: No
